Cited source for all entries: patent US20210388087A1

Target: T1, Human CD3eg linker (human)
T1 construct: Single chain: epsilon and gamma subunits of human CD3 joined by a 29-mer linker, Flag-tag at the C-terminus; also called recombinant human CD3
T1 chain: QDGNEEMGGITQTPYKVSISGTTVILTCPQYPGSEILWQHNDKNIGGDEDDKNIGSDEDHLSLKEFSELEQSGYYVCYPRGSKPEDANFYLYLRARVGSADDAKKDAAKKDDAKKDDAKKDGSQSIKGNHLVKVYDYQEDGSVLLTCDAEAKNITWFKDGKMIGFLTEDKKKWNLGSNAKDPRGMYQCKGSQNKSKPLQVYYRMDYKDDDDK
Experiment: Biacore SPR, vs template H183/L072
Reported fold change of affinity values for the following binders.
State just the number; it will be interpreted in fold.

Some entries whose results are on file:
>  <binder>
H183/L072 VH K52M (antibody, name in Kabat numbering, V domains shown) VH: QVQLVESGGGLVQPGRSLRLSCAASGFTFSNAWMHWVRQAPGKGLEWVAQIMDKGNAYAAYYAPSVKGRFTISRDDSKNSIYLQMNSLKTEDTAVYYCHYVHYASASTVLPAFGVDAWGQGTTVTVSS VL: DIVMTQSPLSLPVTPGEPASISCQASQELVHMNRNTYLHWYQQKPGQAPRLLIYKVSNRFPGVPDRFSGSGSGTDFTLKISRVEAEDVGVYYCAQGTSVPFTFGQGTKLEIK

>  <reported_value>
0.6

$$$$
>  <binder>
H183/L072 VH F27S (antibody, name in Kabat numbering, V domains shown) VH: QVQLVESGGGLVQPGRSLRLSCAASGSTFSNAWMHWVRQAPGKGLEWVAQIKDKGNAYAAYYAPSVKGRFTISRDDSKNSIYLQMNSLKTEDTAVYYCHYVHYASASTVLPAFGVDAWGQGTTVTVSS VL: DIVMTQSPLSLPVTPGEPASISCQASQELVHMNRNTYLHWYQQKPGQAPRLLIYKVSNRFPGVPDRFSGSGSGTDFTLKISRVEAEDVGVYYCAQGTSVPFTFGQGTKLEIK

>  <reported_value>
0

$$$$

# input Item under review: H183/L072 VH A32V (antibody, name in Kabat numbering, V domains shown) VH: QVQLVESGGGLVQPGRSLRLSCAASGFTFSNVWMHWVRQAPGKGLEWVAQIKDKGNAYAAYYAPSVKGRFTISRDDSKNSIYLQMNSLKTEDTAVYYCHYVHYASASTVLPAFGVDAWGQGTTVTVSS VL: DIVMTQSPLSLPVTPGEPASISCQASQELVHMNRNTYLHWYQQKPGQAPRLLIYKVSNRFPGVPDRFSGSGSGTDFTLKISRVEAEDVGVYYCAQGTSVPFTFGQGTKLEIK . Reported fold change of affinity?
# output 0.9

# input Item under review: H183/L072 VH F27K (antibody, name in Kabat numbering, V domains shown) VH: QVQLVESGGGLVQPGRSLRLSCAASGKTFSNAWMHWVRQAPGKGLEWVAQIKDKGNAYAAYYAPSVKGRFTISRDDSKNSIYLQMNSLKTEDTAVYYCHYVHYASASTVLPAFGVDAWGQGTTVTVSS VL: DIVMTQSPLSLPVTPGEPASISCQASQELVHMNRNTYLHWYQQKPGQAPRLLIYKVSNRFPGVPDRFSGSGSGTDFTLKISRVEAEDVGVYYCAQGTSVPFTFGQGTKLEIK . Reported fold change of affinity?
# output 0.3
